FYI, the data here is from ChEMBL document CHEMBL4152210.

System: A549
Assay: Cytotoxicity against human A549 cells assessed as reduction in cell viability after 72 hrs by MTT assay
Assay type: functional, cell-based
Details: A549, 72 h
value_type: log10 of IC50 (log10 of the value in µM)
In our notation, the value equals log10 of IC50 in µM.

[
  {
    "smiles_structure": "CCN1C/C(=C\\c2ccc(OC)c(OC)c2)C(=O)/C(=C/c2ccc(OC)c(OC)c2)C1",
    "value_type": "log10 of IC50",
    "obs_value": 0.56
  },
  {
    "smiles_structure": "COc1ccc(/C=C2\\CN(C)C/C(=C\\c3ccc(OC)c(OC)c3)C2=O)cc1OC",
    "value_type": "log10 of IC50",
    "obs_value": 0.11
  },
  {
    "smiles_structure": "O=C1/C(=C/c2ccccc2F)CNC/C1=C\\c1ccccc1F",
    "value_type": "log10 of IC50",
    "obs_value": 0.38
  },
  {
    "smiles_structure": "COc1cc(/C=C/C(=O)CC(=O)/C=C/c2ccc(O)c(OC)c2)ccc1O",
    "value_type": "log10 of IC50",
    "obs_value": 0.83
  },
  {
    "smiles_structure": "COc1cc(/C=C2\\CN(C(=O)c3ccccc3F)C/C(=C\\c3cc(OC)c(OC)c(OC)c3)C2=O)cc(OC)c1OC",
    "value_type": "log10 of IC50",
    "obs_value": -0.15
  }
]

// for each compound below, give its log10 of IC50
1. COc1ccc(/C=C2\CNC/C(=C\c3ccc(OC)c(OC)c3)C2=O)cc1OC
2. CCC(=O)N1C/C(=C\c2cc(OC)c(OC)c(OC)c2)C(=O)/C(=C/c2cc(OC)c(OC)c(OC)c2)C1
3. COc1cc(/C=C2\CNC/C(=C\c3cc(OC)c(OC)c(OC)c3)C2=O)cc(OC)c1OC
4. COc1cc(/C=C2\CN(C(=O)C(C)C)C/C(=C\c3cc(OC)c(OC)c(OC)c3)C2=O)cc(OC)c1OC

[0.46, -0.10, 0.08, -0.10]

Would you mind listing log10 of IC50 for each of the following compounds?
1. CCN1C/C(=C\c2cc(OC)c(OC)c(OC)c2)C(=O)/C(=C/c2cc(OC)c(OC)c(OC)c2)C1
2. CCCN1C/C(=C\c2ccc(OC)c(OC)c2)C(=O)/C(=C/c2ccc(OC)c(OC)c2)C1
3. COc1cc(/C=C2\CN(C)C/C(=C\c3cc(OC)c(OC)c(OC)c3)C2=O)cc(OC)c1OC
4. COc1cc(/C=C2\CN(C(=O)CCC(=O)O)C/C(=C\c3cc(OC)c(OC)c(OC)c3)C2=O)cc(OC)c1OC
5. Cc1ccc2nc(NCCN)c3ncc(C)n3c2c1

1: 0.62; 2: 0.62; 3: 0.23; 4: 1.25; 5: 0.93

* * *

Kindly supply the reported log(RatioIC50) values for the records listed here.
Assay: Selectivity index, ratio of IC50 for human HL7702 cells to IC50 for human A549 cells
Assay type: toxicity
Answers are plain numbers.

Example entries begin here.
[
  {
    "compound": "O=C1/C(=C/c2ccccc2F)CNC/C1=C\\c1ccccc1F",
    "obs_value": 0.33
  },
  {
    "compound": "COc1cc(/C=C/C(=O)CC(=O)/C=C/c2ccc(O)c(OC)c2)ccc1O [CURCUMIN]",
    "obs_value": 0.02
  },
  {
    "compound": "COc1cc(/C=C2\\CN(C)C/C(=C\\c3cc(OC)c(OC)c(OC)c3)C2=O)cc(OC)c1OC",
    "obs_value": 1.19
  },
  {
    "compound": "COc1ccc(/C=C2\\CN(C)C/C(=C\\c3ccc(OC)c(OC)c3)C2=O)cc1OC",
    "obs_value": 1.15
  },
  {
    "compound": "COc1cc(/C=C2\\CN(C(=O)c3ccccc3F)C/C(=C\\c3cc(OC)c(OC)c(OC)c3)C2=O)cc(OC)c1OC",
    "obs_value": 0.8
  }
]

Hello, I would appreciate it if you could give log(RatioIC50) for each entry below.
1. Cc1ccc2nc(NCCN)c3ncc(C)n3c2c1 [BMS-345541]
2. CCCN1C/C(=C\c2ccc(OC)c(OC)c2)C(=O)/C(=C/c2ccc(OC)c(OC)c2)C1
3. COc1cc(/C=C2\CNC/C(=C\c3cc(OC)c(OC)c(OC)c3)C2=O)cc(OC)c1OC
4. CCC(=O)N1C/C(=C\c2cc(OC)c(OC)c(OC)c2)C(=O)/C(=C/c2cc(OC)c(OC)c(OC)c2)C1

1: 0.25; 2: 0.7; 3: 0.8; 4: 0.72
